# Test system: PPARg:RXRa IVT, anti-PPARg (NR concentration 270 nM, RXRa partner concentration 90 nM)
# assay-name: PBM binding z-score (relative to random genomic background probes); higher = stronger binding; sequences stand for … in GC…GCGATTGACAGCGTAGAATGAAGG
measure-name: PBM binding z-score
Field format: numeric only.

Query block: Which PBM binding z-score value is on record for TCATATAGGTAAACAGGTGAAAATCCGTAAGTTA ?
Result block: 4.3

====

# System: PPARg:RXRa DBDmut IVT, anti-RXR (DBD mutation: RXRa K156A/R161A, NR concentration 270 nM, RXRa partner concentration 90 nM)
# assay-name: PBM binding z-score (relative to random genomic background probes); higher = stronger binding; sequences stand for … in GC…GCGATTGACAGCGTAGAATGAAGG
# cutoff 2 applies to PBM binding z-score; >= gives 1, < gives 0

Solved cases below.
[[record]]
biopolymer_sequence = "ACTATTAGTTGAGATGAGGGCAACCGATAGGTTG"
class_name = 0

[[record]]
biopolymer_sequence = "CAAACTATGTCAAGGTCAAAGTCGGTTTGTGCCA"
class_name = 1

[[record]]
biopolymer_sequence = "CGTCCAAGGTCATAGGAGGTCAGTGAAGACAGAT"
class_name = 1

[[record]]
biopolymer_sequence = "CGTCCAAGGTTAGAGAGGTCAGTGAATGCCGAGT"
class_name = 0

[[record]]
biopolymer_sequence = "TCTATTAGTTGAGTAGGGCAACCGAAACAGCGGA"
class_name = 1

[[record]]
biopolymer_sequence = "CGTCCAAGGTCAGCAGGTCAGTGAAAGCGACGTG"
class_name = 1

[[record]]
biopolymer_sequence = "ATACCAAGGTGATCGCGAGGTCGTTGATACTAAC"
class_name = 0

[[record]]
biopolymer_sequence = "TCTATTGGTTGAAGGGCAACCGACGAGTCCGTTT"
class_name = 0

[[record]]
biopolymer_sequence = "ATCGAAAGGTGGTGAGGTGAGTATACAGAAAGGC"
class_name = 0

[[record]]
biopolymer_sequence = "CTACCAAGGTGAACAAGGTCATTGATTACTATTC"
class_name = 1


Query block: Decide: PBM binding z-score of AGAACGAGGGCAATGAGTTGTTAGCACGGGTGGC >= 2?
Result block: 1

Query block: Evaluate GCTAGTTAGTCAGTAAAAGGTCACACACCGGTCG : PBM binding z-score at minimum 2?
Result block: 0

Query block: PBM binding z-score >= 2 for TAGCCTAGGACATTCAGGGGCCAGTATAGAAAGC ?
Result block: 0

Query block: Quick check: does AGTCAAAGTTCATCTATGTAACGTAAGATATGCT have PBM binding z-score greater than or equal to 2?
Result block: 0

Query block: Is reported PBM binding z-score greater than or equal to 2 here: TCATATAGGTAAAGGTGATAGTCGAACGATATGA
Result block: 1

====

# Test system: PPARg DBDmut IVT, anti-PPARg (DBD mutation: PPARg1 K132A/R137A, NR concentration 270 nM)
# assay-name: PBM binding z-score (relative to random genomic background probes); higher = stronger binding; sequences stand for … in GC…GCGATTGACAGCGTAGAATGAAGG
measure-name: PBM binding z-score

Known PBM binding z-score results, listed for orientation:
[[record]]
biopolymer_sequence = "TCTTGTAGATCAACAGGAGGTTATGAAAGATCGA"
value = 1.46

[[record]]
biopolymer_sequence = "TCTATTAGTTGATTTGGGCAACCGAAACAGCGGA"
value = 1.16

[[record]]
biopolymer_sequence = "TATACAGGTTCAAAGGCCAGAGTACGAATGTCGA"
value = 0.97

[[record]]
biopolymer_sequence = "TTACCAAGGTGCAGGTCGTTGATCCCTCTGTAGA"
value = -1.32

[[record]]
biopolymer_sequence = "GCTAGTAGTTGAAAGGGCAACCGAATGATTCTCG"
value = -0.335


Query block: What value of measured PBM binding z-score is listed for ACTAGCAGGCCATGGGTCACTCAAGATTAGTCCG ?
Result block: -0.346

Query block: If you can, please state the reported PBM binding z-score value of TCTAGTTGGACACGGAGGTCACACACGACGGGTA .
Result block: 0.0839

Query block: PBM binding z-score for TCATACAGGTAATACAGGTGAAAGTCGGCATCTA ?
Result block: 1.28

Query block: Consider the sequence shown here: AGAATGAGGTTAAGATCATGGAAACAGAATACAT What is its recorded PBM binding z-score?
Result block: 1.04

Query block: Look up PBM binding z-score: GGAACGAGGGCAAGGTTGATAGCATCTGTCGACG
Result block: -0.611

Query block: Give its PBM binding z-score value. Item: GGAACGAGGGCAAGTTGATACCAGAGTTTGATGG
Result block: -0.247

Query block: For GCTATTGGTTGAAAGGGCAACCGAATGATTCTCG , what is its reported PBM binding z-score?
Result block: -0.668

Query block: What value of measured PBM binding z-score is listed for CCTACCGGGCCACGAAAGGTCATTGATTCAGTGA ?
Result block: -1.2
